Test system: SNB-75
Assay: NCI tumour cell line growth inhibition, 48 h
Calls of active or inactive are those of the source. No stated cut-off is given here; in the data, active = GI50 up to about 1.1 µM and inactive = higher.
Classes used: yes (active), no (inactive)

molecule | target-or-test-system | group-label
COc1c(CC(C)=O)ccc2c1C(=O)c1ccc(C=O)c(OC(C)=O)c1C2=O | SNB-75 | no
C=CC1(C)CCC2C(=CCC3C(C)(COC4OC(C(=O)O)C(O)C(O)C4O)C(O)CCC23C)C1.C=CC1(C)CCC2C(=CCC3C2(C)CC(O)C(O)C3(C)COC2OC(C(=O)O)C(O)C(O)C2O)C1 (centres undefined) | SNB-75 | no
CCOC(=O)C(C)c1c(C(=O)c2ccc(C)nc2)c2ccccc2n1C (centres undefined) | SNB-75 | no
N#Cc1c(-c2ccccc2)c(C=O)c(=O)n2c1[nH]c1ccccc12 | SNB-75 | no
C=CCN(Cc1ccncc1)C(=O)C(O)(c1ccccc1)c1ccccc1 | SNB-75 | no
COc1ccc(/C(CCl)=C(\Nc2ccccc2)c2ccc(OC)c(OC)c2)cc1OC | SNB-75 | no
O=C1/C(=C/c2cccc([N+](=O)[O-])c2)Sc2scc(-c3ccc([N+](=O)[O-])cc3)[n+]21 | SNB-75 | no
N#CNc1nc(N)c(-c2ccc(Cl)cc2)c(C(=O)Nc2nccs2)n1 | SNB-75 | no
C=C1C(=O)O[C@H]2C1C[C@@H](OC(C)=O)/C(C)=C/CC[C@@]1(C)O[C@H]21 (some centres undefined) | SNB-75 | no
O=C(/C=C/c1ccccc1)/C=C/c1ccccc1 | SNB-75 | no
N[C@H](C(=O)O)[C@@H]1CC(Cl)=NO1 | SNB-75 | no
CSc1nc(C)cc(Nc2ccc(O)c(CN3CCCCC3)c2)n1 | SNB-75 | no
COc1cc2oc3c(c(=O)c2c(O)c1/C=C/C(C)C)C(C=C(C)C)Oc1cc(O)ccc1-3 (centres undefined) | SNB-75 | no
Cn1cc/c(=N\N=c2/ccn(C)c3ccccc23)c2ccccc21 | SNB-75 | no
CN(C)Cc1cc(C(C)(C)C)cc(CN(C)C)c1O | SNB-75 | no
O=c1[nH]c2ccc(C(F)(F)F)cc2nc1C(F)(F)F | SNB-75 | no
CCCCC(=O)OCC(=O)[C@]1(O)Cc2c(O)c3c(c(O)c2[C@@H](OC2CC(NC(=O)C(F)(F)F)C(O)C(C)O2)C1)C(=O)c1c(OC)cccc1C3=O (some centres undefined) | SNB-75 | yes
Cc1nn(C(=O)Cc2ccccc2)c2c1C(c1ccc(Cl)cc1)SC(=N)N2 (centres undefined) | SNB-75 | no
COc1cc2c3c(c1OC)/C(=N/OS(=O)(=O)c1ccc(C)cc1)CC3N(S(=O)(=O)c1ccc(C)cc1)CC2 (centres undefined) | SNB-75 | no

* * *

Tested on: SF-268
Assay: NCI tumour cell line growth inhibition, 48 h
Activity calls are given as the source filed them. Rule as the data show it: active = GI50 up to about 1.1 µM and inactive = higher.
Classes used: 1 for active, 0 for inactive

compound | target-or-test-system | group-label
CCOc1ccc(NCc2cc(OC)c(OC)c(OC)c2)cc1 | SF-268 | 0
CN(CCNC(=O)c1cn(C)c2c1ccc1cc(Cl)c(Cl)cc12)CCNC(=O)c1cn(C)c2c1ccc1cc(Cl)c(Cl)cc12 | SF-268 | 0
C/C1=C\[C@H](C)C[C@H](C)OC(=O)[C@H](C)NC(=O)[C@@H](Cc2ccc(O)c(Br)c2)N(C)C(=O)[C@H](C)NC(=O)[C@@H](C)C1 | SF-268 | 1
Cc1cc(N(CCC#N)S(=O)(=O)c2ccccc2)ccc1/C=N/c1ccc(C(=O)O)cc1 | SF-268 | 0
Cc1cc(CC(O)(C(F)(F)F)C(F)(F)F)cc(CC(O)(C(F)(F)F)C(F)(F)F)n1 | SF-268 | 0
C=C(C)c1nc(Oc2ccccc2)nc(Oc2ccccc2)n1 | SF-268 | 0
COc1ccc(-c2cc(-c3ccco3)c(C#N)c(=S)n2C2OC(CO)C(O)C(O)C2O)cc1 (centres undefined) | SF-268 | 0
COc1cc([C@@H]2c3cc4c(cc3[C@@H](NC(=O)NO)[C@H]3COC(=O)[C@H]23)OCO4)cc(OC)c1O | SF-268 | 0
CCOc1ccccc1C=C1c2ccccc2C(=O)c2ccccc21 | SF-268 | 0

* * *

Test system: UACC-257
Experiment: NCI tumour cell line growth inhibition, 48 h
Active and inactive are the calls of the source. Rule as the data show it: active = GI50 up to about 1.1 µM and inactive = higher.
Classes used: active, inactive

molecule | group-label
O=C1OC2C(O)C(=O)OC2C1O (stereo not given) | inactive
C=C(CCCCC)CN1CCCC1[C@@](C)(O)CC(=O)OCC (stereo not given in full) | inactive
CSC(SC)=C1Sc2cccc(Cl)c2S1 | inactive
Cc1cc(N(CCC#N)CCC#N)ccc1/N=N/c1ccc(S(N)(=O)=O)cc1 | inactive
COc1cccc(NC(=O)CC(=O)N2N=C(N3c4ccccc4Sc4ccccc43)CC2c2ccccc2)c1 (stereo not given) | inactive
COC(=O)c1cc(C)ccc1C1CN=NC12Cc1cccc(C)c1C2=O (stereo not given) | inactive
N=C(c1cccs1)C1(N2CCCCC2)CCCCC1 | inactive
O=C1CCC2(c3ccc(Cl)cc3)Nc3cc(Cl)ccc3N12 (stereo not given) | inactive
CN(C)CCSc1cccc(-c2cc(-c3cccc(SCCN(C)C)c3)nc(SCCN(C)C)n2)c1 | inactive
CCOc1ccccc1C=C1c2ccccc2C(=O)c2ccccc21 | inactive
N#CC12CNCC1CN=N2 (stereo not given) | inactive
COC(=O)c1ccc(Cl)cc1NC(=O)C1CCCCC1 | inactive
O=C1NC(=S)S/C1=C/c1ccco1 | inactive
COc1ccc2c(c1)N=C1CSC(c3cccc(Br)c3)N1C2 (stereo not given) | inactive
Cc1cccc(NC(=S)Nc2ccccc2Cl)n1 | inactive
N#CNc1nc(N)c(-c2ccc(Cl)cc2)c(C(=O)Nc2nccs2)n1 | inactive
COC(=O)c1c(C)cccc1CC1Cc2c(C)cccc2C1=O (stereo not given) | inactive
O=c1c2nn3c(=O)n(-c4ccccc4)c(=O)c3nn2c(=O)n1-c1ccccc1 | inactive
CCCCC(=O)OCC(=O)[C@]1(O)Cc2c(O)c3c(c(O)c2[C@@H](OC2CC(NC(=O)C(F)(F)F)C(O)C(C)O2)C1)C(=O)c1c(OC)cccc1C3=O (stereo not given in full) | inactive
CCN(CC)/N=N/c1c(C(N)=O)n[nH]c1C | inactive
CC1=C(N2CC2)C(=O)c2nc3n(c2C1=O)CCC3OC(=O)CCl (stereo not given) | active
O=P1(NCCCl)OCCC(OO)N1CCCl (stereo not given) | inactive
Nc1cc(N2CCOCC2)nc(=O)n1-c1ccccc1 | inactive
O=C(CNc1ccccc1C(=O)O)Nn1cnc2ccc(S(=O)(=O)Nc3ccccc3C(=O)O)cc2c1=O | inactive
Cc1ccc(/C=C2\Sc3scc(-c4ccccc4)[n+]3C2=O)cc1 | inactive

* * *

Reported GI50 values follow for various compounds
Test system: A549
Test: NCI tumour cell line growth inhibition, 48 h
The source made the active and inactive calls. Cut-off read from the data, not from the text of the source: active = GI50 up to about 1.1 µM and inactive = higher.

compound | GI50
CN(C)CCCN1C(=S)N(CCCN(C)C)c2c3ccccc3nc3c([N+](=O)[O-])ccc1c23 | 5.41 µM (inactive)
CC1OC2OC3C(OCC(O)C3O)OC(=O)[C@]34CCC(C)(C)CC3C3=CCC5[C@@]6(C)C[C@H](O)[C@H](OC7OC(CO)C(O)C(O)C7OC7OC(COC(=O)CC(C)(O)CC(=O)OC1C(O)C2O)C(O)C(O)C7O)[C@@](C)(CO)C6CC[C@@]5(C)[C@]3(C)CC4 (some centres undefined) | 1.32 µM (inactive)
CC(=O)C(=[N+]=[N-])C(=O)NCC#N | > 10 µM (inactive)
Cc1cc(N(CCC#N)CCC#N)ccc1/N=N/c1ccc(S(N)(=O)=O)cc1 | > 100 µM (inactive)

* * *

System: OVCAR-4
Experiment: NCI tumour cell line growth inhibition, 48 h
Active and inactive are the calls of the source. No stated cut-off is given here; in the data, active = GI50 up to about 1.1 µM and inactive = higher.
Classes used: 1 (yes) for active, 0 (no) for inactive

molecule | group-label
C=C1CC(Cn2cc(Br)c(=O)[nH]c2=O)(c2ccc(-c3ccccc3)cc2)OC1=O (centres undefined) | 0 (no)
CCCCCCCCCCCCCCCCCC(=O)OCC(CN(C)CCN(C)C)OC(=O)CCCCCCCCCCCCCCCCC (centres undefined) | 0 (no)
C/C1=C\[C@H](C)C[C@H](C)OC(=O)C[C@H](c2ccc(O)cc2)NC(=O)[C@H](Cc2ccc(O)c(I)c2)N(C)C(=O)[C@H](C)NC(=O)[C@@H](C)C1 | 1 (yes)
O=C(C/N=C(\CN(c1ccccc1)c1ccccc1)Oc1c(Cl)cc(Cl)cc1Cl)N1c2ccccc2Sc2ccccc21 | 0 (no)
COC(=O)c1ccc(Cl)cc1NC(=O)C1CCCCC1 | 0 (no)
COc1ccc(C2S/C(=C\c3ccc(OC)cc3OC)C(=O)N2NC(=O)Cc2ccccc2)cc1 (centres undefined) | 0 (no)
N[C@H](C(=O)O)[C@@H]1CC(Cl)=NO1 | 0 (no)
CC(C)(C)[Si](C)(C)OCC1OC(n2ccc(=O)[nH]c2=O)C(O[Si](C)(C)C(C)(C)C)[C@@]12O[C@H]2C(N)=O (some centres undefined) | 0 (no)
O=C(/C=C/c1ccccc1)/C=C/c1ccccc1 | 0 (no)
